// reported refractive index for each item listed
Assay: refractive index (Na D-line) (dimensionless)
Conditions: 298.15 K; 101.33 kPa; Liquid

# Compound, refractive index
rows = [
    ("CC(C)O [propan-2-ol]", 1.3752),
    ("CCC(C)O (stereo not given) [butan-2-ol]", 1.3953),
    ("CC(C)(C)O [2-methylpropan-2-ol]", 1.3852),
    ("Cc1ccc(O)cc1 [4-methylphenol]", 1.539),
    ("CCCO [propan-1-ol]", 1.3837),
    ("CO [methanol]", 1.3265),
    ("CC(C)CO [2-methyl-1-propanol]", 1.3939),
    ("Cc1ccccc1O [2-methylphenol]", 1.5468),
    ("CCCCO [butan-1-ol]", 1.3974),
    ("CCO [ethanol]", 1.3594),
]
